# cell viability annotations
Test system: HepG2
Experiment: cell viability relative to DMSO; higher = less toxic
Conditions: 72 h; 1 nM
Give the number; % is assumed, so skip it.

{"MOLECULE": "Cc1ccccc1/N=N/c1ccc(/N=N/c2c(O)ccc3ccccc23)c(C)c1 [sudan-IV]", "TARGET OF ASSAY": "HepG2", "cell viability [%]": 96.3}

Record CCN(CC)CCOc1ccc(Cc2ccccc2)cc1 [DPPE] . Reported cell viability: 112

Record C[C@@H]1O[C@@H]1P(=O)(O)O [FOSFOMYCIN CALCIUM] . Reported cell viability: 97.6

----------
Tested on: U2OS
Test: cell viability relative to DMSO; higher = less toxic
Conditions: 72 h; 10000 nM
# cell viability annotations
Give the number; % is assumed, so skip it.

Guide cases for cell viability, answers given:
{"COMPOUND": "O=C(O)COc1ccc(/C=C2\\SC(=O)NC2=O)cc1", "cell viability / %": 100}
{"COMPOUND": "CCC(=O)O[C@H]1[C@H](O[C@@H]2[C@@H](C)[C@H](O[C@H]3C[C@@](C)(OC)[C@@H](O)[C@H](C)O3)[C@@H](C)C(=O)O[C@H](CC)[C@@](C)(O)[C@H](O)[C@@H](C)C(=O)[C@H](C)C[C@@]2(C)O)O[C@H](C)C[C@@H]1N(C)C [erythromycin-estolate]", "cell viability / %": 104}
{"COMPOUND": "Nc1ncnc2c1ncn2[C@@H]1O[C@H](COP(=O)(O)OP(=O)(O)OP(=O)(O)O)[C@@H](O)[C@H]1O [ADENOSINE TRIPHOSPHATE DISODIUM]", "cell viability / %": 110}

Record COc1cccc(Nc2ncnn3ccc(CN4CC[C@@H](N)[C@H](O)C4)c23)c1 . Reported cell viability: 55.7

Record CCOc1cc(OCC)c(C(=O)CCC(=O)O)cc1OCC [trepibutone] . Reported cell viability: 96.6

Record N#Cc1cccc(C(=O)Nc2cc(-c3ccccc3)nn2-c2ccccc2)c1 . Reported cell viability: 91.6

Record Nc1ncnc2c1c(-c1cccc(OCc3ccccc3)c1)cn2[C@H]1C[C@@H](CN2CCC2)C1 . Reported cell viability: 52.5

Record CC[C@@H](Nc1c(Nc2cccc(C(=O)N(C)C)c2O)c(=O)c1=O)c1ccc(C)o1 . Reported cell viability: 103

Record CCC(=O)NC[C@@H]1C[C@H]1c1cccc2c1CCO2 . Reported cell viability: 102
